protocol_text: Selectivity ratio of IC50 for HIV1 group M subtype B reverse transcriptase p66 R448A mutant RNase H activity to IC50 for HIV1 reverse transcriptase RNase H activity
measured_attribute: Ratio IC50
Returns: the value as a bare number; no unit string appended.

Examples from the recorded data:
{"columns": ["structure_string", "val"],
 "data": [
  ["CCOc1ccc(/C=C2\\SC(=O)NC2=O)cc1OCc1ccc(Cl)c(Cl)c1", 1.4],
  ["CC(C)c1ccc(O)c(=O)c(O)c1", 0.7],
  ["COc1cc(N2CCCC2)c(OC)cc1/C=C1/NC(=O)NC1=O", 1.2]
]}

# ---- query compound ----
Value of measured Ratio IC50 for the entry `CCOc1cc(/C=C2\SC(=S)N(c3ccccc3)C2=O)cc([N+](=O)[O-])c1O` : 0.9
